TGT: cGMP-dependent 3',5'-cyclic phosphodiesterase (Homo sapiens, UniProt O00408)
Sequence (O00408 whole entry): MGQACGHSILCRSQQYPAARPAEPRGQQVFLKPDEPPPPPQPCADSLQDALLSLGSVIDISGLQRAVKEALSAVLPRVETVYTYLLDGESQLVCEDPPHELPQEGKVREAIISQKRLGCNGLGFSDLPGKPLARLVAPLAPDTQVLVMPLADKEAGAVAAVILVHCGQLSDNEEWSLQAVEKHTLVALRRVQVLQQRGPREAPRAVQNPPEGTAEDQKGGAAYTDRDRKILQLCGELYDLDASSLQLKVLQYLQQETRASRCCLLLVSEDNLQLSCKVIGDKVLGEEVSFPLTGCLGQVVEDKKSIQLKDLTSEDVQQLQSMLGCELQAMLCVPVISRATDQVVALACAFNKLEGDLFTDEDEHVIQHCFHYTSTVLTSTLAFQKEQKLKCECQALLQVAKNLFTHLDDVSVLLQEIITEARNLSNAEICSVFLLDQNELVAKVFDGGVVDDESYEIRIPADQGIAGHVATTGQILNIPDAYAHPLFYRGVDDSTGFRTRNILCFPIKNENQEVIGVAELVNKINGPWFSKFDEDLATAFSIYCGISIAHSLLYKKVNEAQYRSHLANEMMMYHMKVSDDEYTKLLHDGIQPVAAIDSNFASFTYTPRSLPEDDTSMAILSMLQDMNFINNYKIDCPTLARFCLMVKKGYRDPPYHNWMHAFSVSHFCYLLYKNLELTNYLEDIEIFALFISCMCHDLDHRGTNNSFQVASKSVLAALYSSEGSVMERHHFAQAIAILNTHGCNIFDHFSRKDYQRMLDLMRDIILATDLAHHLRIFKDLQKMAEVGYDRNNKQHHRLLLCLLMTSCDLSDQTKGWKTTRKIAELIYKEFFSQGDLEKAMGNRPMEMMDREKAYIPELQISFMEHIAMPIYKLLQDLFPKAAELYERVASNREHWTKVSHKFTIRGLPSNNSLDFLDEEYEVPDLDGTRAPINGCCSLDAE
EXPERIMENTAL DETAILS: Inhibition of human Phosphodiesterase 2 from peripheral blood mononuclear cells
pIC50: −log10 of the molar value.
MEASURED PROPERTY: pIC50

Notebook: pull reported pIC50 for cGMP-dependent 3',5'-cyclic phosphodiesterase (Homo sapiens, UniProt O00408), entry O=C(O)c1ccc(-c2cc3cccnc3c(-c3ccc4nonc4c3)n2)cc1
< 5.00

Notebook: pull reported pIC50 for cGMP-dependent 3',5'-cyclic phosphodiesterase (Homo sapiens, UniProt O00408), entry COc1ccc([C@]2(C#N)CC[C@@H](C(=O)O)CC2)cc1OC1CCCC1 [CILOMILAST]
< 5.00
